tested target: Hexose transporter 1 (Plasmodium falciparum)
run description: ST_JUDE_LEISH: Cytotoxicity at 2uM final concentration against transgenic Leishmania Mexicana promastigotes LmPfHT that are glucose transport deficient and complemented with the Plasmodium falciparum hexose transporter. Activity is measured by DNA content using SYBR green in vitro
Assay type: functional
parameter measured: inhibition (%)
All answers are understood in %, so give the number only.

In the examples that follow, each entry is paired with its recorded inhibition.
[
  {
    "compound": "CC(Cc1ccc(NC(=O)c2ccc(CNCCc3ccccc3)cc2)cc1)NCCc1cccc(Cl)c1 (stereo not drawn)",
    "parameter measured": "inhibition",
    "unit symbol": "%",
    "recorded result": 36
  },
  {
    "compound": "N#Cc1ccc(N(CCOc2ccc(Cl)c(F)c2)Cc2ccccc2C(F)(F)F)cc1C(F)(F)F",
    "parameter measured": "inhibition",
    "unit symbol": "%",
    "recorded result": 0.42
  },
  {
    "compound": "CC(=O)Nc1ccc(CCNC(C)Cc2ccc(C(=O)Nc3ccc(CC(C)NCCc4cccc(Cl)c4)cc3)cc2)cc1 (stereo not drawn)",
    "parameter measured": "inhibition",
    "unit symbol": "%",
    "recorded result": -1.77
  },
  {
    "compound": "CCN(CCCN1CCCCC1)c1cc(C)nc(Nc2cccc(C(F)(F)F)c2C)n1",
    "parameter measured": "inhibition",
    "unit symbol": "%",
    "recorded result": 1.74
  },
  {
    "compound": "O=C(Nc1cccc(CN2CCCN(CCc3ccccc3)CC2)c1)c1ccc(Cl)c(Cl)c1",
    "parameter measured": "inhibition",
    "unit symbol": "%",
    "recorded result": 8.5
  }
]

In: Specify reported inhibition for the compound shown: Cc1cccc2nc(-c3ccc(-c4ccc(NC(=O)Nc5ccc(F)c(F)c5F)cc4)s3)[nH]c12
Out: 0.06

In: Specify reported inhibition for the compound shown: CNC(=O)c1ccccc1Nc1nc(Nc2ccc(N3CCN(C)CC3)nc2)ncc1C
Out: 11.3

In: Specify reported inhibition for the compound shown: Cc1[nH]c(C)c(-c2ccc(Oc3ccc(F)cc3)cc2)c(=O)c1Cl
Out: 4.42

In: Specify reported inhibition for the compound shown: CC(C)C[C@H](NC(=O)c1cc(-c2ccc(C(C)(C)C)cc2)no1)C(=O)O.CC(C)C[C@H](NC(=O)c1conc1-c1ccc(C(C)(C)C)cc1)C(=O)O
Out: 0.89

In: Specify reported inhibition for the compound shown: CCc1cc2c(=O)c(-c3nc(C)cs3)c(N)oc2c(CN2CCCCC2)c1O
Out: 2.22

In: Specify reported inhibition for the compound shown: O=C(Nc1cccc(N2CCC(NCc3cccnc3)CC2)c1)c1cccc(C(F)(F)F)c1
Out: 1

In: Specify reported inhibition for the compound shown: COc1cc(F)c2ncc(F)c([C@@H](O)CN3CCC(NCc4cc5c(cn4)OCCO5)CC3)c2c1
Out: 2.18

In: Specify reported inhibition for the compound shown: CC(=O)Nc1ccc(S(=O)(=O)Nc2ccc(Nc3nc(C)cc(N(C)C)n3)cc2)cc1
Out: 0.57

The origin of these recorded values is ChEMBL document CHEMBL3433997.
